Reported IC50 by item:
- Target: JAK3 (Homo sapiens, UniProt P52333)
- Sequence (P52333 whole entry): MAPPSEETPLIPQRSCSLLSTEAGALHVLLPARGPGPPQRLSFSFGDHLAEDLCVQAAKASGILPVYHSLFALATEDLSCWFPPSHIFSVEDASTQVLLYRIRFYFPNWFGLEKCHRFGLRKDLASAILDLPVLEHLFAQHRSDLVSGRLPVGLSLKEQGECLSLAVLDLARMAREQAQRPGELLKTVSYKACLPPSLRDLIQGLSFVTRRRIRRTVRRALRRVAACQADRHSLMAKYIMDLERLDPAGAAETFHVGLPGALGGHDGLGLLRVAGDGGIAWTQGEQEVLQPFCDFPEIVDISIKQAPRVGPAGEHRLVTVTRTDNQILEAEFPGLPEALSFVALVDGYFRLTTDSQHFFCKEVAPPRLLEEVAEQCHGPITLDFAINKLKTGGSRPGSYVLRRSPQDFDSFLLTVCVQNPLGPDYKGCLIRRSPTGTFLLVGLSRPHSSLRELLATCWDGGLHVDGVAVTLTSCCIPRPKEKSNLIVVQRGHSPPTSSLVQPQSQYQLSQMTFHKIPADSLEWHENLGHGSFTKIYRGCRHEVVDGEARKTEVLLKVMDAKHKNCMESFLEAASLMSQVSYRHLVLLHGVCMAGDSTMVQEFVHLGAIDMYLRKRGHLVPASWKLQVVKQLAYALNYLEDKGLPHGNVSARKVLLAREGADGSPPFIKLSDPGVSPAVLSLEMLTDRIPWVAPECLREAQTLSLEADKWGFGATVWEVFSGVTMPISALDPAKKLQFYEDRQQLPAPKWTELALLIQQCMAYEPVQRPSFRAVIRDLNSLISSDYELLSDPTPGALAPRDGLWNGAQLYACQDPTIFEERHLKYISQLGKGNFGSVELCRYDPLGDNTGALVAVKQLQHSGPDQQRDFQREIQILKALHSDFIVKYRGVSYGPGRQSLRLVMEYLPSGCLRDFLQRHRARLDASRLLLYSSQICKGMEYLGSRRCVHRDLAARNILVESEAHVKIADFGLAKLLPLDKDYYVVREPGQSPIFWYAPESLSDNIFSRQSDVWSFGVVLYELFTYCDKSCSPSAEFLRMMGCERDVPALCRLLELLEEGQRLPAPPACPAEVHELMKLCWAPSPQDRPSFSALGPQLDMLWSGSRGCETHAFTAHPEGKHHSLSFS
- Test method notes: JAK assay (KINASE-GLO luminescent kinase assay), JAK3
- Assay type: biochemical
- Conditions used: 10 nM JAK enzyme, 800 nM Abl peptide, room temperature 75 min
- Protocol: All compounds were initially prepared as 10 mM stocks in anhydrous dimethylsulfoxide (DMSO). […] Protein kinase activity was quantitated using Promega's KINASE-GLO™ luminescent Kinase Assay Kit according to the manufacturer's directions. […] Percent of Control (POC) values were determined for each concentration of compound tested according to the equation: [formula] • IC50 values were calculated using the following 4-parameter logistic curve-fitting algorithm: […]

Example results:
{"columns": ["Compound", "IC50"],
 "data": [
  ["N#CCCn1cc(-c2nc(Nc3ccc(N4CCOCC4)cc3F)ncc2Cl)cn1", "< 100 nM"],
  ["Cc1cnc(Nc2ccc(S(C)(=O)=O)cc2)nc1-c1cnn(CC2(Cl)CC2)c1 [CC1═C(N═C(NC2═CC═C(C═C2)[S]]", "< 10 nM"],
  ["CNC(=O)c1cccc(Nc2ncc(Cl)c(-c3cnn(CC4(NC)CC4)c3)n2)c1", "< 100 nM"]
]}

Q: Need IC50 of OCC(O)c1cccc(Nc2ncc(Cl)c(-c3cnn(CC4(CF)CC4)c3)n2)c1 (stereo not shown) , thanks.
Ans: < 10 nM

Q: Need IC50 of CC(C)(C)OC(=O)N1CC(C#N)(Cn2cc(-c3nc(Nc4ccc(C(N)=O)cc4)ncc3Cl)cn2)C1 [CC(C)(C)OC(═O)N1CC(C1)(C[N]2C═C] , thanks.
Ans: < 100 nM

Q: Need IC50 of `N#CCCn1cc(-c2nc(Nc3ccc(C(=O)O)cc3)ncc2Cl)cn1` , thanks.
Ans: < 100 nM

Q: Need IC50 of `Cc1cnc(Nc2ccc3c(c2)OCCN3C)nc1-c1cnn(CC2(CF)CC2)c1` , thanks.
Ans: < 100 nM

###

- Target: UniProt P29597
- Test method notes: JAK assay (KINASE-GLO luminescent kinase assay), TYK2
- Format: biochemical
- Conditions used: 10 nM JAK enzyme, 800 nM Abl peptide, room temperature 75 min
Metric: IC50

{"columns": ["Compound", "Target", "Result"],
 "data": [
  ["Cc1cnc(Nc2ccc(OCCN(C)C)cc2)nc1-c1cnn(CC2(CF)CC2)c1", "UniProt P29597", "< 100 nM"],
  ["Cc1cnc(Nc2cccc(CN3CCN(C)CC3)c2)nc1-c1cnn(CC2(CF)CC2)c1", "UniProt P29597", "< 1000 nM"]
]}

Now turn to the next compound.
Q: Need IC50 of Cc1cnc(NCCO)nc1-c1cnn(CCC#N)c1 [CC1═C(N═C(NCCO)N═C1)C2═C[N]] , thanks.
Ans: < 100000 nM

###

- Target: JAK3 (Homo sapiens)
- Test method notes: JAK assay (KINASE-GLO luminescent kinase assay), JAK3
- Format: biochemical
- Conditions used: 10 nM JAK enzyme, 800 nM Abl peptide, room temperature 75 min
Metric: IC50

Example results:
{"columns": ["Molecule", "Target", "Metric", "Result"],
 "data": [
  ["COC(=O)c1ccc(Nc2ncc(Cl)c(-c3cnn(CC4(C#N)CC4)c3)n2)cn1 [COC(═O)C1═NC═C(NC2═NC(═C]", "JAK3 (Homo sapiens)", "IC50", "< 100 nM"],
  ["FC(F)C1(Cn2cc(-c3nc(Nc4ccc5cnoc5c4)ncc3Cl)cn2)COC1 [FC(F)C1(COC1)C[N]2C═C(C═N2)C3═C]", "JAK3 (Homo sapiens)", "IC50", "< 100 nM"],
  ["Cn1ccc(Nc2ncc(Cl)c(-c3cnn(CC4(C#N)COC4)c3)n2)cc1=O [CN1/C═C\\C(═C/C1═O)NC2═NC(═C]", "JAK3 (Homo sapiens)", "IC50", "< 1000 nM"]
]}

Q: Need IC50 of Cc1cnc(Nc2cccc(CCO)c2)nc1-c1cnn(CC2(CF)CC2)c1 [CC1═C(N═C(NC2═CC(═CC═C2)CCO)N═C1)C3═C[N]] , thanks.
Ans: < 10 nM

Q: Need IC50 of COc1cc(Nc2ncc(C)c(-c3cnn(CC4(CF)CC4)c3)n2)sn1 [COC1═NSC(═C1)NC2═NC(═C] , thanks.
Ans: < 100 nM

Q: Need IC50 of COCCOCc1cc(Nc2ncc(C)c(-c3cnn(CC4(CF)CC4)c3)n2)sn1 [COCCOCC1═NSC(═C1)NC2═NC(═C] , thanks.
Ans: < 1000 nM

Q: Need IC50 of COC(=O)c1cccc(Nc2ncc(Cl)c(-c3cnn(CCC#N)c3)n2)c1 [COC(═O)C1═CC═CC(═C1)NC2═NC] , thanks.
Ans: < 10 nM

Q: Need IC50 of Cc1cc(Nc2ncc(Cl)c(-c3cnn(CCC#N)c3)n2)on1 [CC1═NOC(═C1)NC2═NC(═C] , thanks.
Ans: < 1000 nM

###

- Target: UniProt P29597
- Test method notes: JAK assay (KINASE-GLO luminescent kinase assay), TYK2
- Type: biochemical
- Conditions used: 10 nM JAK enzyme, 800 nM Abl peptide, room temperature 75 min
Metric: IC50

{"columns": ["Molecule", "Target", "IC50"],
 "data": [
  ["CCc1cnc(Nc2cc(C)ns2)nc1-c1cnn(CC2(Cl)CC2)c1", "UniProt P29597", "< 100 nM"],
  ["N#CCCn1cc(-c2nc(Nc3ccc(C(=O)O)cc3)ncc2Cl)cn1", "UniProt P29597", "< 10 nM"],
  ["C=CCNc1ncc(C)c(-c2cnn(CCC#N)c2)n1 [CC1═C(N═C(NCC═C)N═C1)C2═C[N]]", "UniProt P29597", "< 100000 nM"],
  ["Cc1cnc(Nc2ccc(N3CCN(C)CC3)cc2)nc1-c1cnn(CC2(F)CC2)c1", "UniProt P29597", "< 10 nM"],
  ["Cc1cc(Nc2ncc(C)c(-c3cnn(CC4(CF)CCC4)c3)n2)sn1", "UniProt P29597", "< 10 nM"],
  ["CN1CCN(c2ccc(Nc3ncc(Cl)c(-c4cnn(CC5(C#N)CC5)c4)n3)cn2)CC1", "UniProt P29597", "< 100000 nM"],
  ["Cc1cc(Nc2ncc(Cl)c(-c3cnn(CCC#N)c3)n2)on1", "UniProt P29597", "< 100 nM"],
  ["Cc1cnc(Nc2cn(C)nn2)nc1-c1cnn(CC2(CF)CC2)c1 [C[N]1C═C(NC2═NC(═C(C)C═N2)C3═C[N]]", "UniProt P29597", "< 1000 nM"],
  ["Cc1cc(Nc2ncc(Cl)c(-c3cnn(CC4(N(C)C(=O)OC(C)(C)C)CC4)c3)n2)sn1 [CN(C(═O)OC(C)(C)C)C1(CC1)C[N]2C═C]", "UniProt P29597", "< 1000 nM"],
  ["Cc1cnc(Nc2ccnc(OCCN(C)C)c2)nc1-c1cnn(CC2(CC#N)CC2)c1", "UniProt P29597", "< 100 nM"]
]}

Q: Need IC50 of CC(C)(C)OC(=O)N1CC(CO)(Cn2cc(-c3nc(Nc4ccc(C(N)=O)cc4)ncc3Cl)cn2)C1 [CC(C)(C)OC(═O)N1CC(CO)(C1)C[N]2C═C] , thanks.
Ans: < 1000 nM

Q: Need IC50 of `N#CC1(Cn2cc(-c3nc(Nc4cnc5ccnn5c4)ncc3Cl)cn2)CCC1` , thanks.
Ans: < 1000 nM

Q: Need IC50 of `CC(C)(C)OC(=O)NCc1cccc(Nc2ncc(Cl)c(-c3cnn(CC4(CF)CC4)c3)n2)c1` , thanks.
Ans: < 100 nM

Q: Need IC50 of `COCc1cc(Nc2ncc(C)c(-c3cnn(CC4(CF)CC4)c3)n2)sn1` , thanks.
Ans: < 1000 nM

Q: Need IC50 of `Cc1cnc(Nc2ccc(C3CN(C(=O)OC(C)(C)C)C3)cc2)nc1-c1cnn(CCC#N)c1` , thanks.
Ans: < 10 nM

Q: Need IC50 of Cc1cc(Nc2ncc(C)c(-c3cnn(CC4(CN(C)C)CC4)c3)n2)sn1 [CN(C)CC1(CC1)C[N]2C═C(C═N2)C3═C] , thanks.
Ans: < 100 nM

###

- Target: TYK2 (Homo sapiens, UniProt P29597)
- Sequence (P29597 whole entry): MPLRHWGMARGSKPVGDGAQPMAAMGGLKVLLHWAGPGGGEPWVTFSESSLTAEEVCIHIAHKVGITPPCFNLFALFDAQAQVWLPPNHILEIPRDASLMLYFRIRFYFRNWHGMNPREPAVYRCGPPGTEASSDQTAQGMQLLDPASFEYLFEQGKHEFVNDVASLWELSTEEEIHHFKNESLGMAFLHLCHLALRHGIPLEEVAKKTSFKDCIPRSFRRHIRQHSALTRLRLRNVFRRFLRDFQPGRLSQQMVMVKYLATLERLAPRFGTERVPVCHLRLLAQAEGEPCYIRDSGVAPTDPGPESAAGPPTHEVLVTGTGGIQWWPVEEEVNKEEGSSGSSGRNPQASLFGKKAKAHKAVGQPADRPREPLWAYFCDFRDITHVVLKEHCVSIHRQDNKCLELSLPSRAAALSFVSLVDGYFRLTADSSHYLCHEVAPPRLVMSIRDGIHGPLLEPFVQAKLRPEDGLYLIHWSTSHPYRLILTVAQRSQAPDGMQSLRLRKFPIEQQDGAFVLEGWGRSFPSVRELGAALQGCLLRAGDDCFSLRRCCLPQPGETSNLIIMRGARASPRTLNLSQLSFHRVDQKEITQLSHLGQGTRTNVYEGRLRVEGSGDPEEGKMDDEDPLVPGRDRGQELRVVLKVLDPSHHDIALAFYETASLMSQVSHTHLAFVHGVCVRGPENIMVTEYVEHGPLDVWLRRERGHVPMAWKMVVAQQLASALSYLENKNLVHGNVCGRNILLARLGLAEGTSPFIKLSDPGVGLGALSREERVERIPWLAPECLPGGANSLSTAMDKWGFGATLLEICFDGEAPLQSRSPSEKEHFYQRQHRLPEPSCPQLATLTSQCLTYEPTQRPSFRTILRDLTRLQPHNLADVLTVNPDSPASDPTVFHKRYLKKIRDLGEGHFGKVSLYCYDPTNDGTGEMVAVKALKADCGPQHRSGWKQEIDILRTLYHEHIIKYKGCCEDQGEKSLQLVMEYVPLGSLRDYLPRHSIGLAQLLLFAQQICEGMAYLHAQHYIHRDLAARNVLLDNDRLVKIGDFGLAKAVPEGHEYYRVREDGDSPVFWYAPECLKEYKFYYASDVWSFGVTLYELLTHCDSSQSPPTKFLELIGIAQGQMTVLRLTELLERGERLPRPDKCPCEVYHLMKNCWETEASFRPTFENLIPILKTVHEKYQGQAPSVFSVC
- Test method notes: JAK assay (KINASE-GLO luminescent kinase assay), TYK2
- Type: biochemical
- Conditions used: 10 nM JAK enzyme, 800 nM Abl peptide, room temperature 75 min
Reported IC50 by item:

Example results:
{"columns": ["Compound", "IC50"],
 "data": [
  ["Cc1cnc(Nc2cnc(N3CCOCC3)nc2)nc1-c1cnn(CC2(CF)CC2)c1", "< 1000 nM"],
  ["Cc1cnc(NCCN2CCCCC2)nc1-c1cnn(CCC#N)c1 [CC1═C(N═C(NCCN2CCCCC2)N═C1)C3═C[N]]", "> 50000 nM"],
  ["Cc1cnc(Nc2ccc(N3CC4(COC4)C3)cc2)nc1-c1cnn(CC2(CF)CC2)c1 [CC1═C(N═C(NC2═CC(═C(C═C2)N3CC4]", "< 10 nM"],
  ["COc1cc(Nc2ncc(C)c(-c3cnn(CC4(CF)CC4)c3)n2)sn1", "< 10 nM"],
  ["NC(=O)CCn1cc(-c2nc(NC3CCNCC3(F)F)ncc2Cl)cn1 (stereo not drawn) [NC(═O)CC[N]1C═C(C═N1)C2═C]", "> 50000 nM"],
  ["CNC(=O)c1ccc(Nc2ncc(C)c(-c3cnn(CC4(CF)CC4)c3)n2)cc1", "< 10 nM"]
]}

Q: Need IC50 of CC(C)(C)OC(=O)N1CCC(Nc2ncc(Cl)c(-c3cnn(CCC#N)c3)n2)C(F)(F)C1 (stereo not drawn) , thanks.
Ans: > 50000 nM

Q: Need IC50 of `N#CCCn1cc(-c2nc(Nc3ccc(N4CCOCC4)cc3F)ncc2Cl)cn1` , thanks.
Ans: < 100 nM

Q: Need IC50 of `COCCOCc1cc(Nc2ncc(C)c(-c3cnn(CC4(CF)CC4)c3)n2)sn1` , thanks.
Ans: < 1000 nM

Q: Need IC50 of N#CCCn1cc(-c2nc(Nc3ccc(CCOP(=O)(O)O)cc3)ncc2Cl)cn1 [O[P](O)(═O)OCCC1═CC═C(NC2═NC(═C] , thanks.
Ans: < 10 nM

Q: Need IC50 of CC(C)(C)OC(=O)N1CC(C#N)(Cn2cc(-c3nc(Nc4ccc(C(N)=O)cc4)ncc3Cl)cn2)C1 [CC(C)(C)OC(═O)N1CC(C1)(C[N]2C═C] , thanks.
Ans: < 100 nM

Q: Need IC50 of `Cc1cc(Nc2ncc(C)c(-c3cnn(CC4(CF)CCC4)c3)n2)ccn1` , thanks.
Ans: < 100 nM

Q: Need IC50 of FC(F)C1(Cn2cc(-c3nc(Nc4ccc5cnoc5c4)ncc3Cl)cn2)COC1 [FC(F)C1(COC1)C[N]2C═C(C═N2)C3═C] , thanks.
Ans: < 1000 nM

Q: Need IC50 of `Cc1cc(Nc2ncc(C)c(-c3cnn(CC4(CF)CC4)c3)n2)ccc1N1CCN(C)CC1` , thanks.
Ans: < 10 nM

Q: Need IC50 of `Cc1cc(Nc2nc3c(c(-c4cnn(CC5(C#N)COC5)c4)n2)CN(C(=O)OC(C)(C)C)C3)sn1` , thanks.
Ans: > 50000 nM

Reference source for all entries: patent US20250236611A1
